List of IC50 values.
tested on: Leishmania donovani; experiment: Antileishmanial activity against Leishmania donovani promastigotes; type: functional, organism-based; settings: read-out: pIC50 (converted)
Could you give me the number in µM? Just the number is fine.

>>> print(df.to_string())
                                   molecule  endpoint_name  readout_value
0  CC1(C)[C@@H]2C[C@@]3(C)Oc4c(C=O)c(O)c(C=O)c(O)c4C[C@H]3C[C@@H]21           IC50           5.75

-- ask # query: IC50 of entry "CC(C)C[C@@H]1C[C@@]2(CC[C@H]3C[C@@H]2C3(C)C)Oc2c(C=O)c(O)c(C=O)c(O)c21"
-- reply 4.14

-- ask Please do the same for "CC(C)CC(=O)c1c(O)c(C=O)c2c(c1O)C[C@H]1C[C@H]3[C@@H](C[C@@]1(C)O2)C3(C)C" as well.
-- reply 0.724

-- ask Please do the same for "CC1(C)[C@H]2CC[C@@]3(CCc4c(O)c(C=O)c(O)c(C=O)c4O3)[C@@H]1C2" as well.
-- reply 6.35

-- ask Please do the same for "CC1(C)[C@H]2C[C@@H]3Cc4c(O)c(C=O)c(O)c(C=O)c4O[C@]3(CCO)[C@@H]1C2" as well.
-- reply 6.11

-- ask Please do the same for CC(C)CC(=O)c1c(O)c(C=O)c(O)c2c1O[C@@]1(C)[C@@H](C2)C[C@H]2C[C@@H]1C2(C)C [EUGLOBAL G1] as well.
-- reply 1.84

-- ask Please do the same for "CC(=O)c1c(O)c(C=O)c2c(c1O)CC[C@@]1(CC[C@H]3C[C@@H]1C3(C)C)O2" as well.
-- reply 4.65

-- ask Please do the same for "CC(C)CC(=O)c1c(O)c(C=O)c(O)c2c1O[C@]1(C)C[C@@H]3[C@H](C[C@@H]1C2)C3(C)C" as well.
-- reply 1.6
